biological target: TGFBR2 (Homo sapiens, UniProt P37173); assay: TGFBR2 RBC enzyme assay (Reaction Biology Corp.)
Sequence (P37173 23-567): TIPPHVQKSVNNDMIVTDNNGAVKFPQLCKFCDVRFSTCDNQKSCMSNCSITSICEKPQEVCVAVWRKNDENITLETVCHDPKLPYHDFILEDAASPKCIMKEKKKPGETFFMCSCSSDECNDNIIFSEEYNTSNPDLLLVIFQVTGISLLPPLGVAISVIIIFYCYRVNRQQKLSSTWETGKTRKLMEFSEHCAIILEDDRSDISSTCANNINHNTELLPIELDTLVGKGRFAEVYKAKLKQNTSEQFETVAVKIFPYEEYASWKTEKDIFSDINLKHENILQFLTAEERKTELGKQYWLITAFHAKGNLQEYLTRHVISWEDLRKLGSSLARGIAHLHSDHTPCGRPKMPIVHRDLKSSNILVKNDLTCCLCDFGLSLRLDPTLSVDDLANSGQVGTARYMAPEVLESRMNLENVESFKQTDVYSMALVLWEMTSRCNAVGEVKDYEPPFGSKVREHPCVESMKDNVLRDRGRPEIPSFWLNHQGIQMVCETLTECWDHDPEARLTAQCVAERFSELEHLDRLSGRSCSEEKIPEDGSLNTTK
I'd appreciate it if you could supply EC50 values for the items below.

So, CN1CCCNC(=O)c2cccc(c2)-c2cnc(N)c(n2)C(=O)Nc2cnccc21 [Compound 31] ? Its EC50 was 100 to 1000 nM

The recorded EC50 for entry CN1CCC(=O)Nc2cccc(c2)-c2cnc(N)c(n2)C(=O)Nc2cnccc21 [Compound 26] equals 1 to 100 nM

Query Nc1ncc2nc1C(=O)Nc1cnccc1N1CCC(CC1)COc1cccc-2c1 [Compound 22] yields EC50 of > 1000 nM
